# Procedure Summary: yeast display, Sf9 membrane polyspecificity reagent, FACS + sequencing; frameworks hold sequencing errors

# Item Sequence, polyreactivity (PSR sort gate)
records = [
    ("QVQLEESGGGLVQAGGSLRLSCPASGYTFESNAMGWSRQAPRKERELVAAINGGGGTYYADSVKGRFTISRDNGKNTVYLQMNSLKPEDTAVNVDIGFAYVPNYDYWGQGTQVTVSS", "low polyreactivity"),
    ("QVQLVESGGGLVQAGRSLRLTCAASGRIFTPYAMGWYRQAPGTERELVATITLSGGSTYYADSVKGRFTISRDYAKNTVYLQMNSLKPEDTAVYYCNKDTHLHVVDYRTGYDCWGQGTQVTVSS", "low polyreactivity"),
]

----------
# Procedure Summary: yeast display, Sf9 membrane polyspecificity reagent, FACS + sequencing; frameworks hold sequencing errors

# Item Sequence, polyreactivity (PSR sort gate)
records = [
    ("QVQLVESGGCLVQAGGSLSLSCAASGFTFSWNAMGWYRQAPGKERELVATITRSGSTYYADSVKGRFTISRDNAKNTVYLLMNSLKPEDTAVYYCAVVSWYRYSRYENDYWGQGTQVTVSS", "high polyreactivity"),
    ("QVQLVESGGGLVQAGGSLRLSCAASGRTFRYNAMGSYRQAPGKERELVAAISGRGSSTYYADSVKGRFTISRDNAKNTVYLQMNSLKPEDTAVYYCAALPASVRRPGWHDYWGQGTQVTVSS", "high polyreactivity"),
]

----------
# Procedure Summary: yeast display, Sf9 membrane polyspecificity reagent, FACS + sequencing; frameworks hold sequencing errors
Endpoint Label: polyreactivity (PSR sort gate)

Solved cases (8 shown):
# Item Sequence, Endpoint Label, Readout Value
rows = [
    ("QVQLVESGGGLVQAGGSLRLSCAASGFTLYYSAMGWYRQAPGKERELVAAISYSGGSTYYADSVKGRFTISRDYAKNTVYLHMYSLKPEDTAVSYCAVQFSYGFTGGPIYDYWGQGTQVTVSS", "polyreactivity (PSR sort gate)", "low polyreactivity"),
    ("QVQLVESGGGLVQAGGSLRLSCAASGSTYYIYAMGWYRQAPGKEREMVAAISDNGGTTYYADSVKGRFTISRDNAKNTVYLQMNSLKPEDTAVYYCNAEGWWYWYYGSYDYWGQGTQVTVSS", "polyreactivity (PSR sort gate)", "high polyreactivity"),
    ("QVQLVESGGGLVQAGGSLRLSCAASGFNFYDYTMGWYRQAPGKERELVAAISWSGGSTYHADSVKGRFTISRDTAKNTVYLQMNSLKPEDTAVYYCNADYGYYKSGYGFDYWGQGTKVTVSS", "polyreactivity (PSR sort gate)", "low polyreactivity"),
    ("QVQLVESGGGLVQAGGSLRLSCAASGFTFYQNAMGWYRQAPGKEREFVAAISRRGGSTYYADSVKGRFTSSRDNAKNTVYLQMNSLKPEDTAVYYCAADYKRKSDGDYWGQGTQVTVSS", "polyreactivity (PSR sort gate)", "high polyreactivity"),
    ("QVQLVESGGGLVQAGGSLRLTCAASGRTFGINAMGWYRQAPGKERELVAAIDSIDGTTYYADSVKGHFTISRDNAKNTVYLPMNRLKPAATAVYYCAAEFISSYDYWGQGTQVTVSS", "polyreactivity (PSR sort gate)", "high polyreactivity"),
    ("QVQLVESGGGLVQAGGSLRLSCAASGRTFRSYTMGWYRQAPGKERELVAAIRTSSGSTYYADSVKGRFTISRDNAKNTVYLQMNSLKPEDTAVYYCAKTLLYPWFRTVAVDYWGQGTQVTVSS", "polyreactivity (PSR sort gate)", "low polyreactivity"),
    ("QVQLVESGGGLVQAGGSLRLSCAASGSIFPHYAMGWYRQSPGKETELVAAISRSGTSTYYADSVKGRFTISRDNAKNTVYLQMNSLKPEDTAVYYCAALSNNGVRYYYWGQGTQVTVSS", "polyreactivity (PSR sort gate)", "high polyreactivity"),
    ("QVQLVESGGGLVKAGGSLRLSSDASGSISKSYAMGWYRQAPGKERELVAVITSGGNTYYADSVKGRFTISRDNAKNTVYLQMNSLKPEDTAVYYCAAKSGRGRTMDYWGQGTQVTVSS", "polyreactivity (PSR sort gate)", "high polyreactivity"),
]

Incoming: Using the record for QGQLVESGGGLVQAGGSLRLSCAASGRIFVANAMGWYRQAPGKERELVAAISGRGSRTYYADSVKGRFTISRDNAKKTVYIQMNSLKPEETAVYSCAARYRYDGRYDYWGPGTQVTVSS , report its polyreactivity (PSR sort gate).
Outgoing: high polyreactivity

Incoming: Using the record for QVQLVESGGGLVQAGGSLRLSCAASGRTFAWNTMGWYRQAPGKERELLAAISGSGGSTYYADSVKGRFTISRDYAKNTVYLQMNSLKPEDTAVYYCARRVDSYYGHTLYYYWGQGTQVTVSS , report its polyreactivity (PSR sort gate).
Outgoing: high polyreactivity

Incoming: Using the record for QVQLVESGGGLVQAGGRLRLSCAASGRTFANYAMGWYRQAPGKERELVAAITGSGSTNYADSVKGRFTISRDNAKNTVYLQMNSLKPEDTAVYYCAAAYKPYRCLYYPNSIDFGYWGQGTQVTVSS , report its polyreactivity (PSR sort gate).
Outgoing: high polyreactivity

Incoming: Using the record for QVQLVESGGGLVQAGGSLRLSCDASGITFDDYSRGWYRQAPGKERELVAAISGSGGSTYYADSVKGRFTISRDNAKNTVFLQMHSLKPEDTAVYYCAASGPEGQYLWYDYWGKGTQVTVSS , report its polyreactivity (PSR sort gate).
Outgoing: high polyreactivity

Incoming: Using the record for QVQLVESGGGLVQAGGSLRLSCAASGNIFLRYAMGWYRQAPGKERELVAAISYSGGGSTYYADSVKGRFTISRDNAKNTVYLQMNSLKPEDTAVYYCAKVLTSRTQFFDYDYWGQGTQVSVSS , report its polyreactivity (PSR sort gate).
Outgoing: low polyreactivity

Incoming: Using the record for QVQLVESGGGLVQAGGSLRLSCAASGNIFTYNTMGWYRQAPRKERELVAAISSGGSTYYADSVKGRFTISRDNAKNTVYLQMNSLKPEDTAVYYCNRRRWLWQTARGDYWGQGTQVTVSS , report its polyreactivity (PSR sort gate).
Outgoing: high polyreactivity

Incoming: Using the record for QVQLVESGGGLVQAGGSLRLSCAASGSSFRRNAMGWYRQAPGKERELVAAITRGGGSTYYADSVKGRFTISRDNAKNTVYLQMNSLKPEDTAVYYCAAQISATRETMDYWGQGTQVTVSS , report its polyreactivity (PSR sort gate).
Outgoing: high polyreactivity

Incoming: Using the record for QVQLVESGGGLVQAGGSLRLSCAASGRIFRSYAMGWYRQAPGKERELVAAMTWGGGRTYYADSVKGRFTISRDNAKNTVYLQMNSLKPEDTAVYYCNTLAYPYYRGSKYDYWGQGTQVTVSS , report its polyreactivity (PSR sort gate).
Outgoing: high polyreactivity

Incoming: Using the record for QVQLVESGGGLVQAGGSLRLSCAASGYIFAYNTMGWYRQAPGKERELVAAISRSGGSTYYADSVKGRFTISRDNAKNTVYLQMNSLKPEDTAVYYCAARYAPLDFRFDYWGQGTQVTVSS , report its polyreactivity (PSR sort gate).
Outgoing: high polyreactivity

Origin of measurements: the nanobody polyreactivity screen of Harvey et al. (2022)
